- MEASURED TARGET: hTREM2 (Homo sapiens)
- TEST NAME: Phospho-Syk AlphaScreen/AlphaLISA assay in TREM2 and DAP12 overexpressing HEK293 cells (Example A1)
- Assay type: cell-based
- Parameters: expressed in transfected cells
- DETAILS: HEK293 cells, read-out: hTREM2 EC50
Assign EC50 to each entry below.

EC50 in this record for Cc1noc([C@H]2CCCN(c3cc4nc(C)n(C)c(=O)c4c(-c4ccc(Cl)cc4F)n3)C2)n1 (single isomer, unassigned) [Example 112] : 3000 to 100000 nM

EC50 in this record for Cc1ccc([C@H]2C[C@@H](c3cc4nc(C)n(C)c(=O)c4c(-c4ccc(Cl)cc4F)n3)CCO2)cn1 [Example 273] : 50 to 500 nM

EC50 in this record for Cc1nc2cc(N3CCO[C@@H]([C@@H]4CCO4)C3)nc(-c3ccc(Cl)cc3F)c2c(=O)n1C [Example 270] : 500 to 3000 nM

EC50 in this record for Cc1nc2cc(N3CCC[C@H](c4ccncc4)C3)nc(-c3ccc(Cl)cc3F)c2c(=O)n1C [Example 233] : 50 to 500 nM

EC50 in this record for Cc1nc2cc(N3CCOC(c4cncc(F)c4)C3)nc(-c3ccc(Cl)cc3F)c2c(=O)n1C (centres unmarked) [Example 69] : 50 to 500 nM

EC50 in this record for Cc1nc2cc(N3CC[C@H](N4CCOCC4)C3)nc(-c3ccc(Cl)cc3F)c2c(=O)n1C [Example 208] : 3000 to 100000 nM

EC50 in this record for Cc1nc2cc(N3CCO[C@@H](c4cnn(C)c4)C3)nc(-c3ccc(Cl)cc3F)c2c(=O)[nH]1 [Example 145] : 500 to 3000 nM

EC50 in this record for CCn1c(C)nc2cc(N3CCO[C@@H](c4cnn(C5CC5)c4)C3)nc(-c3ccc(F)cc3F)c2c1=O [Example 151] : < 50 nM

EC50 in this record for Cc1nc2cc(N3CCCC(N4CCC4)C3)nc(-c3ccc(Cl)cc3F)c2c(=O)n1C (centres unmarked) [Example 110] : 500 to 3000 nM

EC50 in this record for Cc1nc2cc(N3CCO[C@@H](c4cnn(C)c4)C3)nc(-c3ccc(Cl)c(F)c3)c2c(=O)n1C [Example 7] : 50 to 500 nM

EC50 in this record for Cc1ccc(-c2nc(N3CCO[C@@H](c4cnn(C)c4)C3)cc3nc(C)n(C)c(=O)c23)c(F)c1 [Example 12] : 50 to 500 nM

EC50 in this record for Cc1nc([C@H]2CN(c3cc4nc(C)n(C)c(=O)c4c(-c4ccc(Cl)cc4F)n3)CCO2)no1 (single isomer, unassigned) [Example 56] : 3000 to 100000 nM

EC50 in this record for Cc1c([C@@H]2CN(c3cc4nc(C)n(C)c(=O)c4c(-c4ccc(Cl)cc4F)n3)CCO2)cnn1C (single isomer, unassigned) [Example 66] : 50 to 500 nM

EC50 in this record for Cc1ncc([C@H]2CN(c3cc4nc(C)n(C)c(=O)c4c(-c4ccc(Cl)cc4F)n3)CCO2)cn1 (single isomer, unassigned) [Example 65] : 3000 to 100000 nM

====

- MEASURED TARGET: hTREM2 (Homo sapiens, UniProt Q9NZC2)
- Sequence (Q9NZC2 19-230): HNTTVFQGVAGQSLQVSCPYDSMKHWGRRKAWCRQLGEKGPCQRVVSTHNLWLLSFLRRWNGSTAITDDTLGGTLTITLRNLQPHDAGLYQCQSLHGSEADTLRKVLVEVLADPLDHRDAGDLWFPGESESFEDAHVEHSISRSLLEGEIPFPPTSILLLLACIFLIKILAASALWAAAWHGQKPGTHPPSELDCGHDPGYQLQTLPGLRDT
- Sequence (O43914 22-113 partner): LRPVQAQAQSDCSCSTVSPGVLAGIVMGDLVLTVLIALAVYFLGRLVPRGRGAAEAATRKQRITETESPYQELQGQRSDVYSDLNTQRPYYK
- TEST NAME: Phospho-Syk AlphaScreen/AlphaLISA assay in TREM2 and DAP12 overexpressing HEK293 cells (Example A1)
- Type: cell-based
- Set-up: expressed in transfected cells
- DETAILS: HEK293 cells, read-out: hTREM2 EC50
pEC50: −log10 of the molar value.
ASSAY ENDPOINT: pEC50

pEC50 in this record for COc1cc([C@@H]2C[C@H](c3cc4nc(C)n(C)c(=O)c4c(-c4ccc(Cl)cc4F)n3)CCO2)ccn1 [Example 267] : > 7.30

pEC50 in this record for Cc1nc2cc(N3CCO[C@@H](c4ccsc4)C3)nc(-c3ccc(Cl)cc3F)c2c(=O)n1C (single isomer, unassigned) : 5.52 to 6.30

pEC50 in this record for Cc1ccc([C@@H]2CN(c3cc4nc(C)n(C)c(=O)c4c(-c4ccc(Cl)cc4F)n3)CCO2)cn1 (single isomer, unassigned) : 6.30 to 7.30

pEC50 in this record for Cc1nc2cc(C3=CC(c4cnn(C)c4)OCC3)nc(-c3ccc(Cl)cc3F)c2c(=O)n1C (racemic) : 6.30 to 7.30

pEC50 in this record for Cc1nc2cc(N3CCO[C@@H](c4cnn(C)c4)C3)nc(-c3cc(F)c(F)cc3F)c2c(=O)n1C : 6.30 to 7.30

pEC50 in this record for COc1cc([C@H]2C[C@H](c3cc4nc(C)n(C)c(=O)c4c(-c4ccc(Cl)cc4F)n3)CCO2)ccn1 (single isomer, unassigned) : 6.30 to 7.30

pEC50 in this record for CCCn1c(C)nc2cc(N3CCO[C@H](C(F)F)C3)nc(-c3ccc(Cl)cc3F)c2c1=O [Example 191] : 5.52 to 6.30

pEC50 in this record for Cc1nc2cc(N3CCC[C@@H](C4CNC4)C3)nc(-c3ccc(Cl)cc3F)c2c(=O)n1C : 4.00 to 5.52

pEC50 in this record for Cc1nc([C@@H]2CN(c3cc4nc(C)n(C)c(=O)c4c(-c4ccc(Cl)cc4F)n3)CCO2)no1 [Example 200] : 6.30 to 7.30

pEC50 in this record for Cc1cc([C@H]2C[C@@H](c3cc4nc(C)n(C)c(=O)c4c(-c4ccc(Cl)cc4F)n3)CCO2)ccn1 (single isomer, unassigned) : > 7.30

pEC50 in this record for Cc1nc2cc(N3C[C@@H](C)O[C@H](C4CC4)C3)nc(-c3ccc(Cl)cc3F)c2c(=O)n1C (single isomer, unassigned) : 4.00 to 5.52

pEC50 in this record for Cc1nc2cc(N3CCC(F)(F)[C@@H](c4cnn(C)c4)C3)nc(-c3ccc(Cl)cc3F)c2c(=O)n1C (single isomer, unassigned) : 6.30 to 7.30

pEC50 in this record for Cc1cc(Cl)cnc1-c1nc(N2CCOC(c3cnn(C)c3)C2)cc2nc(C)n(C)c(=O)c12 (stereo not drawn) : 4.00 to 5.52

pEC50 in this record for Cc1nc2cc(N3CCOC(c4ccnc(C(F)(F)F)c4)C3)nc(-c3ccc(Cl)cc3F)c2c(=O)n1C (stereo not drawn) : > 7.30

pEC50 in this record for Cc1nnc([C@H]2CN(c3cc4nc(C)n(C)c(=O)c4c(-c4ccc(Cl)cc4F)n3)CCO2)o1 [Example 271] : 6.30 to 7.30
